Target: T1, hFc-hFasL (fusion protein of human Fc fragment and human FasL extracellular region) (human, UniProt P48023 134-281)
T1 sequence: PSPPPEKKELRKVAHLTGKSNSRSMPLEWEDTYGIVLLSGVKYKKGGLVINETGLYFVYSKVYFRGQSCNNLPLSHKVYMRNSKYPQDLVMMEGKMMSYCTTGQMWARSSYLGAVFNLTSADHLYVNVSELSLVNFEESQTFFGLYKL
Experiment: cell-based or functional assay
parameter-measured: HepG2 IC50(nM), FasL antigen-induced cell apoptosis

- binder: "humFL-M54-11 (antibody, human IgG4, V domains shown) VH: QVQLVQSGAEVKKPGSSVKVSCKASGYTFTRFDISWVRQAPGQGLEWIGWIFPGDGSSQYNENFKGRATLTTDKSTSTAYMELSSLRSEDTAVYFCARSLISTAMFDHWGQGTLVTVSS VL: EIVMTQSPATLSVSPGERATLSCRASKSVSTSDFSYIHWYQQKPGQAPRLLIYLASHLESGIPARFSGSGSGTEFTLTISSLQSEDFAVYYCQHSRELPRTFGQGTKVEIK"
  reported-value: "0.028 nM"
- binder: "humFL-M54-4 (antibody, human IgG4, V domains shown) VH: QVQLVQSGAEVKKPGSSVKVSCKASGYTFTRFDISWVRQAPGQGLEWMGWIFPGDGSSQYNENFKGRVTLTTDKSTSTAYMELSSLRSEDTAVYFCARSLISTAMFDHWGQGTLVTVSS VL: EIVMTQSPATLSVSPGERATLSCRASKSVSTSDFSYIHWYQQKPGQPPRLLIFLASHLESGIPARFSGSGSGTEFTLTISSLQSEDFAVYYCQHSRELPRTFGQGTKVEIK"
  reported-value: "0.03 nM"

Now consider a different binder.
Q: Entry humFL-M54-7 (antibody, human IgG4, V domains shown) VH: QVQLVQSGAEVKKPGSSVKVSCKASGYTFTRFDISWVRQAPGQGLEWMGWIFPGDGSSQYNENFKGRATLTTDKSTSTAYMELSSLRSEDTAVYFCARSLISTAMFDHWGQGTLVTVSS VL: EIVMTQSPATLSVSPGERATLSCRASKSVSTSDFSYIHWYQQKPGQPPRLLIYLASHLESGIPARFSGSGSGTEFTLTISSLQSEDFAVYYCQHSRELPRTFGQGTKVEIK needs its HepG2 IC50(nM), FasL antigen-induced cell apoptosis filled in; supply it.
Ans: 0.028 nM
